Values from patent US20200062863A1

Target: T1, human Factor XIIa-alpha (human, UniProt P00748 20-615)
T1 sequence: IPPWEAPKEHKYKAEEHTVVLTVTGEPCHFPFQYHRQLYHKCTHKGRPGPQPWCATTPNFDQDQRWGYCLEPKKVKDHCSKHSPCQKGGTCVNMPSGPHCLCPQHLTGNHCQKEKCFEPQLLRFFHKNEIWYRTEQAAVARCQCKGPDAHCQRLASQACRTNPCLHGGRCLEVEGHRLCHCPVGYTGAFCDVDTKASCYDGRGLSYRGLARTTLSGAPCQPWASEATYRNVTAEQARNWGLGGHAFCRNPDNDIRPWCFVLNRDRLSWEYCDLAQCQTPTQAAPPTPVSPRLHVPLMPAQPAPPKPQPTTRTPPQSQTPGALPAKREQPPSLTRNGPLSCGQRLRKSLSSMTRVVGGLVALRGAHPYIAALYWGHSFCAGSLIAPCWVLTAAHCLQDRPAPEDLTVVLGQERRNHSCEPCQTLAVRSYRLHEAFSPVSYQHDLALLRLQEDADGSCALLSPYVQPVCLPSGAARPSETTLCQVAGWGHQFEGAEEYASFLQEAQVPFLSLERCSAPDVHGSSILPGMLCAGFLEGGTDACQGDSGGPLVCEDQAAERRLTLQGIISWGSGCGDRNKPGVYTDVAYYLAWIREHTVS
Assay: cell-based or functional assay
REPORTED METRIC: % Inhibition, ratio FXIIa-alpha:Antibody 1:0.5 (%)

{"BINDER": "VR115 (antibody, V domains shown) VH: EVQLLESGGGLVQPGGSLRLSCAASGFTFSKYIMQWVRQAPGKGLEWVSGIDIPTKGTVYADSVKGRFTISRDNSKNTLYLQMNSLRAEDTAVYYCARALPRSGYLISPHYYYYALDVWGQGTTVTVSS VL: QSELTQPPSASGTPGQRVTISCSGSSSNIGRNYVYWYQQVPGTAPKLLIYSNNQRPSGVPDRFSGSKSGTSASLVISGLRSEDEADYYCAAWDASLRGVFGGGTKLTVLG", "MEASURED": 100}
{"BINDER": "VR112 (antibody, V domains shown) VH: EVQLLESGGGLVQPGGSLRLSCAASGFTFSKYIMQWVRQAPGKGLEWVSGINVPVQGTVYADSVKGRFTISRDNSKNTLYLQMNSLRAEDTAVYYCARALPRSGYLISPHYYYYALDVWGQGTTVTVSS VL: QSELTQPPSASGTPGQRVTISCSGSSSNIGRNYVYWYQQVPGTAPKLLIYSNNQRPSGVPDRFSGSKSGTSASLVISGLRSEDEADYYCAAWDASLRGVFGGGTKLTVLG", "MEASURED": 99.7}
{"BINDER": "VR24 (antibody, V domains shown) VH: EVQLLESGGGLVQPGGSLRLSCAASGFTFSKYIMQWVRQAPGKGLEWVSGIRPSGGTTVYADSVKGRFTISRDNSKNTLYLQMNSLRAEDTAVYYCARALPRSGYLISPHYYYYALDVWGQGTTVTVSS VL: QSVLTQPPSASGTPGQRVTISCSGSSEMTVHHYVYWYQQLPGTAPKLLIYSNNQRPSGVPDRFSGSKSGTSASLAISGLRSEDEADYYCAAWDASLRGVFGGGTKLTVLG", "MEASURED": 99.7}
{"BINDER": "monoclonal antibody 3F7 (fully human IgG4/lambda) (antibody, V domains shown, also called 3F7 mAb; MAb 3F7) VH: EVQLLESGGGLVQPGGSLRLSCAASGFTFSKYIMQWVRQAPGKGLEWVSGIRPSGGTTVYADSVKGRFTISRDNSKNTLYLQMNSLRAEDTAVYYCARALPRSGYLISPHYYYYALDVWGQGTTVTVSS VL: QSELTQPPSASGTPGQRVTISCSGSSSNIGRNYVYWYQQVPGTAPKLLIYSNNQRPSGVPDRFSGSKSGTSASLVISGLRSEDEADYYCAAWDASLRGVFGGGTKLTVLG", "MEASURED": 91.9}
{"BINDER": "VR110 (antibody, V domains shown) VH: EVQLLESGGGLVQPGGSLRLSCAASGFTFSKYIMQWVRQAPGKGLEWVSGIDMPTKGTVYADSVKGRFTISRDNSKNTLYLQMNSLRAEDTAVYYCARALPRSGYLISPHYYYYALDVWGQGTTVTVSS VL: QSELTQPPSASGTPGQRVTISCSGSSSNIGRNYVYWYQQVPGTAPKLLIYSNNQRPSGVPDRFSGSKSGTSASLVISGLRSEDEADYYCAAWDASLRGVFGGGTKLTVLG", "MEASURED": 100}
